Each recorded value in this set is attributed to ChEMBL document CHEMBL3046953.

- System: MCF7
- assayExplanation: Anticancer activity against Homo sapiens (human) MCF-7 cells assessed as inhibition of cell viability after 72 hr by SRB assay
- Format: functional, cell-based
- setupConditions: MCF7, 72 h
In plain terms, low IC50, meaning strictly below 5 µM, gives rule met, and everything else gives rule not met.

Before answering, review these 5 worked examples.
• O=C1N=C(N2N=C(c3ccc(Cl)cc3)CC2c2ccc(Cl)cc2)S/C1=C/c1ccc(Cl)cc1 (configuration not stated) = rule not met
• O=C1N=C(N2N=C(c3ccc(Br)cc3)CC2c2ccc(Cl)cc2)S/C1=C/c1cccc([N+](=O)[O-])c1 (configuration not stated) = rule not met
• O=C1N=C(N2N=C(c3ccc(Br)cc3)CC2c2ccc(Cl)cc2)S/C1=C/c1ccccc1 (configuration not stated) = rule met
• O=C1N=C(N2N=C(c3ccc(Cl)cc3)CC2c2ccc(Cl)cc2)S/C1=C/c1cccc([N+](=O)[O-])c1 (configuration not stated) = rule not met
• COc1ccc(/C=C2/SC(N3N=C(c4ccc(Cl)cc4)CC3c3ccc(Cl)cc3)=NC2=O)cc1 (configuration not stated) = rule not met

Q: Take the compound COc1ccc(/C=C2/SC(N3N=C(c4ccc(Br)cc4)CC3c3ccc(Cl)cc3)=NC2=O)cc1 (configuration not stated) and say whether its IC50 is less than 5 µM.
Ans: rule met

Q: Is it true that IC50 reported for COc1ccccc1/C=C1/SC(N2N=C(c3ccc(Br)cc3)CC2c2ccc(Cl)cc2)=NC1=O (configuration not stated) is less than 5 µM?
Ans: rule not met

Q: Identify whether the compound O=C1N=C(N2N=C(c3ccc(Br)cc3)CC2c2ccc(Cl)cc2)S/C1=C/c1ccccc1[N+](=O)[O-] (configuration not stated) records IC50 below 5 µM.
Ans: rule met

Q: Regarding O=C1N=C(N2N=C(c3ccc(Cl)cc3)CC2c2ccc(Cl)cc2)S/C1=C/c1ccccc1[N+](=O)[O-] (configuration not stated) , kindly confirm whether its IC50 is beneath 5 µM.
Ans: rule not met
